# tested.target: T1, cSNK:BSA conjugate (bovine, head-to-tail cyclized; conjugated to BSA carrier)
# T1 construct: also called BSA-cSNK
# T1 sequence (P02769 25-607 limits assumed): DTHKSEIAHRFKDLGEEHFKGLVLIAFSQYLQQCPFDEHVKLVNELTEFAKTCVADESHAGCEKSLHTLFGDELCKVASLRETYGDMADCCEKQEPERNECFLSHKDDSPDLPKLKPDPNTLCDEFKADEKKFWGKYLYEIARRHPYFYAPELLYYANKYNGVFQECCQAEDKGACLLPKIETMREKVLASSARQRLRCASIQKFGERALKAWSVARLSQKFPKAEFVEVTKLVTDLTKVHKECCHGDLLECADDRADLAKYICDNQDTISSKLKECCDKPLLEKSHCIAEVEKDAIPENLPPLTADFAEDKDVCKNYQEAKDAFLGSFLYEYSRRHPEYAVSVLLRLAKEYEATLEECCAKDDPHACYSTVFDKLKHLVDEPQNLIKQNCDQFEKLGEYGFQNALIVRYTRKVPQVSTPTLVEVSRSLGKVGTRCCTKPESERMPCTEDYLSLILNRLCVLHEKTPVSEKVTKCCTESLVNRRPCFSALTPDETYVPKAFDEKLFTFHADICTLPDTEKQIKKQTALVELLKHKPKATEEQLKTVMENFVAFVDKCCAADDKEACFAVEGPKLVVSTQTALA
# assay.info: BLI (Octet), 1:1 model, BSA-cSNK
Reported Kd is given for each of the following binders.

Answered examples (2):
HuΔ5E3-IgG1 (IHR) (antibody, V domains shown, human IgG1; also called huΔ5E3 IHR Mutation) VH: QVQLQQSGPEVKKPGASVKISCKASGYIFTSYYIQWVIHRPGQGLEWIGWIYPGNVNTKYNEKFKGKATLTADKSSSTAYMELSSLTSEDTAVYFCARMDYEAHYWGQGTTVTVSS VL: DIQMTQSPSSLSASVGDRVTITCRASQEISGYLTWLQQKPEGAIKRLIYAASTLDSGVPKRFSGSRSGSDYSLTISSLQPEDFATYNCLQYANYPRTFGGGTKLEIK = 1.43 nM
hu5E3-IgG4 (antibody, V domains shown, human IgG4/kappa; also called humanized 5E3 IgG4) VH: QVQLQQSGPEVKKPGASVKISCKASGYIFTSYYIQWVIHAPGQGLEWIGWIYPGNVNTKYNEKFKGKATLTADKSSSTAYMELSSLTSEDTAVYFCARMDYEAHYWGQGTTVTVSS VL: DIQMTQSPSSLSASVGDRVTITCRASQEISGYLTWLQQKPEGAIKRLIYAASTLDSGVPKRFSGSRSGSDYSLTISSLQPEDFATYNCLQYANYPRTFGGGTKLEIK = 1.31 nM

Give the value of Kd reported for the following: HuΔ5E3-IgG1 (IQR) (antibody, V domains shown, human IgG1; also called huΔ5E3 IQR Mutation) VH: QVQLQQSGPEVKKPGASVKISCKASGYIFTSYYIQWVIQRPGQGLEWIGWIYPGNVNTKYNEKFKGKATLTADKSSSTAYMELSSLTSEDTAVYFCARMDYEAHYWGQGTTVTVSS VL: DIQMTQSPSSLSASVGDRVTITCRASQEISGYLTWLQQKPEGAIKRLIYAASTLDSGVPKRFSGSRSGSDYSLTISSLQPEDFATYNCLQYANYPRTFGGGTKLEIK
1.26 nM
